experiment: qHTS assay to identify small molecule agonists of H2AX - cell viability counter screen (AID 1224847);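 also: wild-type CHO-K1 cells; top concentration of the series differs between compounds; nearly all actives have a fitted effect of over 30% in size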
assay_context: CHO-K1 viability, CellTiter-Glo luminescence, 3 h; series mostly up to 154 µM
Records with an inconclusive call do not appear. The source made the active and inactive calls. Calls follow the shape of the full dose curve.
value_kind: outcome

Here are 5 compounds together with their reported answers.
compound=CC(C)CCCCCCOC(=O)c1ccccc1C(=O)OCCCCCCC(C)C val=inactive
compound=Cc1cccc(C)c1NC(=O)CN1CCCC1=O val=inactive
compound="CNC(=O)O/N=C/C(C)(C)S(C)=O (stereo unspecified)" val=inactive
compound=OC[C@@H](O)[C@H]1O[C@@H]2O[C@H](C(Cl)(Cl)Cl)O[C@@H]2[C@H]1O val=inactive
compound="OCC(O)CCl (stereo unspecified)" val=inactive

Please examine the following record next.
Just so you know, measured outcome for `C[C@H]1C(=O)O[C@@H]2CCN3CC=C(COC(=O)[C@](C)(O)[C@]1(C)O)[C@H]23` came out at inactive
